Test system: SK-MEL-5 melanoma
EXPERIMENTAL PROTOCOL: NCI-60 one-dose screen, 48 h (100 = growth as untreated, 0 = no growth, -100 = all killed)
EXPERIMENTAL SETUP: 10 µM unless noted
This is part of a sample that, as a whole, favours compounds with a hit. Of some 83,000 tested, about 20% had one in any assay.
Collected growth values appear next to each entry.
ENDPOINT: growth (%)

* CC1CN(S(=O)(=O)c2oc(-c3ccc(Cl)cc3)nc2C#N)CC(C)O1 (stereo not given) | 92.7
* NNc1nc(-c2cccnc2)nc2c1sc(=S)n2-c1ccccc1 | 98.4
* CCOC(=O)c1cc(C)n(-c2ccc(C(=O)O)cc2)c1C | 92
* Cc1nc2sc(C(=O)Nc3cccc(Br)c3)c(N)c2cc1C(O)c1ccccc1 (stereo not given) | 17.9
* COC(CC(F)F)c1cn(S(=O)(=O)c2ccc(C)cc2)c2ccccc12 (stereo not given) | 34.1
* COc1ccc(C(=O)C/C(=C\c2ccc(Cl)cc2)C(=O)NCc2ccccc2)cc1 | 93.4
* N#CSCC1CC(O)(c2ccccc2)CC(c2ccc(F)cc2)O1 (stereo not given) | 22.1
* COc1ccc(/C=N\Nc2nc(SCCC(C)C)nc(-c3ccc(OC)cc3)c2C#N)cc1 | 94.3
* CC(C)=CCCC(C)c1ccc(C)c2c1OCN(CCCCCO)C2 (stereo not given) | 91.7
* C[PH+](c1nc2ccccc2nc1[PH+](C)C(C)(C)C)C(C)(C)C.C[PH+](c1nc2ccccc2nc1[PH+](C)C(C)(C)C)C(C)(C)C.[Au+].[Cl-] (stereo not given) | -100
* CC/C(=C(/c1ccc(Cl)cc1)c1ccc(OCCN(C)C)cc1)c1ccc(Cl)cc1 | 86.4
* CCOC(=O)c1cc(C(=O)c2cc(OC)c(OC)c(OC)c2)n2ncccc12 | 25.9
* CCOC(=O)c1nn(-c2ccc(S(N)(=O)=O)cc2)c2nc(C)cc(=O)n12 | 106
* N#Cc1c(-c2ccc(Cl)cc2)nc(NN2C(=O)c3ccccc3C2=O)nc1N1CCOCC1 | 101
* Cc1csc(Nc2nc(-c3ccccn3)nc(C(Cl)(Cl)Cl)n2)n1 | 86.2
* N#CC1=C(N)Oc2c(c(=O)[nH]c3ccc(Cl)cc23)C12C(=O)c1ccccc1C2=O | 95.9
* Cc1[nH]c(C(=O)Nc2ccccc2OC2CCNCC2)c(Cl)c1Cl | -40.6
* COc1c(C(=O)Nc2ccc(C)c(Br)c2)ccc2ccccc12 | 98.3
* O=C(NCCNc1nccc(Nc2ccc(S(=O)(=O)Nc3ccccn3)cc2)n1)c1cccc([N+](=O)[O-])c1 | 103
* CCCc1c(OC(=O)c2ccccc2)nc2[nH]c(=O)sc2c1C | 98
